- test target: human NK1 receptor (Homo sapiens, UniProt P25103)
- Construct: expressed in transfected cells; host or cells: CHO cells, Semliki virus expression system; membrane suspension
- Sequence (P25103 whole entry): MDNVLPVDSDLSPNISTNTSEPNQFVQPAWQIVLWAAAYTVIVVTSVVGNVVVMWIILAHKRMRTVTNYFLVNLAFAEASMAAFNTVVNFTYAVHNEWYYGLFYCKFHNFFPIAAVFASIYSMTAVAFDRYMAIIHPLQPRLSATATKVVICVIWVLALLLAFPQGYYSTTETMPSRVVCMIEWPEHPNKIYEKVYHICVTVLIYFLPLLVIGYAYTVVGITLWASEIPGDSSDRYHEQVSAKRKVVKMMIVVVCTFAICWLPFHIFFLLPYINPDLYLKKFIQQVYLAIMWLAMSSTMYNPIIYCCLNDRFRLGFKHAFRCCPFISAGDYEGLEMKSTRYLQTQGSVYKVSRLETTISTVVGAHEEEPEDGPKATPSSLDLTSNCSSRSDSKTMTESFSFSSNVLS
- assay notes: NK1 receptor binding, [3H]substance P displacement
- recorded conditions: human NK1 receptors in CHO cells, [3H]substance P 0.6 nM; read-out: pKi (affinity to the NK-1 receptor) (converted)
Kindly apply the following: 1.0 if Ki is less than 1 nM, 0.0 in every other case.

[
  {
    "compound": "Cc1ccc(C2CN(C(=O)c3cc(C(F)(F)F)cc(C(F)(F)F)c3)CCC2N2CCN(C3CC3)CC2)cc1 (single isomer, unassigned; (-))",
    "assigned label": 0.0
  },
  {
    "compound": "Cc1ccc(C2CN(C(=O)c3cc(C(F)(F)F)cc(C(F)(F)F)c3)CCC2N2CCN(C)CC2)cc1 (single isomer, unassigned; (-))",
    "assigned label": 1.0
  },
  {
    "compound": "O=C(c1cc(C(F)(F)F)cc(C(F)(F)F)c1)N1CCC(N2CCC(O)CC2)C(c2ccc(Cl)cc2)C1 (racemic)",
    "assigned label": 0.0
  },
  {
    "compound": "O=C(c1cc(C(F)(F)F)cc(C(F)(F)F)c1)N1CC[C@@H](N2CCCC2)[C@@H](c2ccc(Cl)cc2)C1 (single isomer, unassigned)",
    "assigned label": 0.0
  },
  {
    "compound": "O=C(Cc1ccccc1)NC1CCCN(C2CCN(C(=O)c3cc(C(F)(F)F)cc(C(F)(F)F)c3)CC2c2ccc(F)cc2)C1 (mixture of isomers)",
    "assigned label": 0.0
  },
  {
    "compound": "O=C(c1cc(C(F)(F)F)cc(C(F)(F)F)c1)N1CC[C@H](N2CCN(C(=O)C(F)(F)F)CC2)[C@H](c2ccc(Cl)cc2)C1 (racemic)",
    "assigned label": 0.0
  },
  {
    "compound": "CN1CCN([C@@H]2CCN(C(=O)c3cc(C(F)(F)F)cc(C(F)(F)F)c3)C[C@@H]2c2ccc(F)cc2)CC1 (single isomer, unassigned)",
    "assigned label": 0.0
  },
  {
    "compound": "O=C(c1cc(C(F)(F)F)cc(C(F)(F)F)c1)N1CC[C@@H](N2CCN(C(=O)C(F)(F)F)CC2)[C@@H](c2ccc(Cl)cc2)C1 (single isomer, unassigned)",
    "assigned label": 0.0
  },
  {
    "compound": "CN(C)C1CCN(C2CCN(C(=O)c3cc(C(F)(F)F)cc(C(F)(F)F)c3)CC2c2ccc(Cl)cc2)CC1 (racemic)",
    "assigned label": 1.0
  },
  {
    "compound": "Cc1ccc(C2CN(C(=O)c3cc(C(F)(F)F)cc(C(F)(F)F)c3)CCC2N2CCN(C(=O)N3CCOCC3)CC2)cc1 (single isomer, unassigned; (-))",
    "assigned label": 0.0
  },
  {
    "compound": "O=C(c1cc(C(F)(F)F)cc(C(F)(F)F)c1)N1CCC(N2CCN(CCO)CC2)C(c2ccccc2)C1 (single isomer, unassigned; (-))",
    "assigned label": 1.0
  },
  {
    "compound": "O=C(c1cc(C(F)(F)F)cc(C(F)(F)F)c1)N1CCC(N2CCC(OCC3CC3)CC2)C(c2ccc(Cl)cc2)C1 (racemic)",
    "assigned label": 0.0
  },
  {
    "compound": "O=C(c1cc(C(F)(F)F)cc(C(F)(F)F)c1)N1CC[C@@H](N2CCN(C(=O)C3CC3)CC2)[C@@H](c2ccccc2)C1 (single isomer, unassigned)",
    "assigned label": 0.0
  },
  {
    "compound": "O=C(c1cc(C(F)(F)F)cc(C(F)(F)F)c1)N1CCC(N2CCC(N3CCOCC3)CC2)C(c2ccc(Cl)cc2)C1 (racemic)",
    "assigned label": 0.0
  },
  {
    "compound": "Cc1ccc(C2CN(C(=O)c3cc(C(F)(F)F)cc(C(F)(F)F)c3)CCC2N2CCN(C(=O)C3CC3)CC2)cc1 (single isomer, unassigned; (-))",
    "assigned label": 0.0
  },
  {
    "compound": "CN1CCN([C@H]2CCN(C(=O)c3cc(C(F)(F)F)cc(C(F)(F)F)c3)C[C@H]2c2ccccc2)CC1 (racemic)",
    "assigned label": 0.0
  },
  {
    "compound": "O=C(c1cc(C(F)(F)F)cc(C(F)(F)F)c1)N1CCC(N2CCN(CC3CC3)CC2)C(c2ccccc2)C1 (single isomer, unassigned; (-))",
    "assigned label": 1.0
  },
  {
    "compound": "O=C(c1cc(C(F)(F)F)cc(C(F)(F)F)c1)N1CC[C@H](N2CCN(CC3CC3)CC2)[C@H](c2ccccc2)C1 (racemic)",
    "assigned label": 0.0
  },
  {
    "compound": "O=C(c1cc(C(F)(F)F)cc(C(F)(F)F)c1)N1CCC(N2CCN(CC3CC3)CC2)C(c2ccc(Cl)cc2)C1 (single isomer, unassigned; (-))",
    "assigned label": 1.0
  },
  {
    "compound": "O=C(NC1CCCN(C2CCN(C(=O)c3cc(C(F)(F)F)cc(C(F)(F)F)c3)CC2c2ccc(F)cc2)C1)C1CC1 (mixture of isomers)",
    "assigned label": 0.0
  },
  {
    "compound": "CN1CCN([C@@H]2CCN(C(=O)c3cc(C(F)(F)F)cc(C(F)(F)F)c3)C[C@@H]2c2ccccc2)CC1 (single isomer, unassigned)",
    "assigned label": 0.0
  },
  {
    "compound": "O=C(c1cc(C(F)(F)F)cc(C(F)(F)F)c1)N1CC[C@H](N2CCN(CC3CC3)CC2)[C@H](c2ccc(F)cc2)C1 (racemic)",
    "assigned label": 0.0
  },
  {
    "compound": "O=C(c1cc(C(F)(F)F)cc(C(F)(F)F)c1)N1CC[C@@H](N2CCOCC2)[C@@H](c2ccc(Cl)cc2)C1 (single isomer, unassigned)",
    "assigned label": 0.0
  }
]
